In this section we review reported emission maximum values for a set of compounds.
experiment: solvent given as SMILES; conditions: in C1CCCCC1
reported.property: emission maximum (nm)

INSERT INTO results (compound, value_units, experimental_value) VALUES
  ('CCCC1(CCC)c2cc(-c3cccc(C)c3)ccc2-c2ccc(-c3cccc(C)c3)cc21', 'nm', 363),
  ('N#Cc1cccc(N)c1', 'nm', 343),
  ('COc1ccc(-c2ccc(-c3ccc(C#N)cc3)cc2)cc1', 'nm', 377),
  ('Fc1ccc(-c2nc3n(c2-c2ccncc2)CCS3)cc1', 'nm', 397.5),
  ('CN(C)c1ccc(-c2ncnc3ccccc23)cc1', 'nm', 421),
  ('CC1=[N+]2C(=C(NC(C)c3ccccc3)c3ccc(C)n3[B-]2(F)F)C=C1c1cc2n(c1)[B-](F)(F)[N+]1=CC=CC1=C2c1c(C)cc(C)cc1C (configuration not stated)', 'nm', 640),
  ('CCCC1(CCC)c2ccccc2-c2ccc(-c3ccc4c(c3)C(CCC)(CCC)c3cc(-c5ccc6c(c5)C(CCC)(CCC)c5ccccc5-6)ccc3-4)cc21', 'nm', 396),
  ('CCCC1(CCC)c2ccccc2-c2ccc(-c3ccc(C(C)(C)C)cc3)cc21', 'nm', 314),
  ('F[B-]1(F)n2c(-c3ccccc3)cnc2-c2cccc[n+]21', 'nm', 486),
  ('CC1=[N+]2C(=C(Oc3cc(C)c4c(c3)CC[C@@](C)(CCC[C@H](C)CCC[C@H](C)CCCC(C)C)O4)c3ccc(C)n3[B-]2(F)F)C=C1c1cc2n(c1)[B-](F)(F)[N+]1=CC=CC1=C2c1c(C)cc(C)cc1C', 'nm', 632),
  ('CC[Si](CC)(CC)Oc1cccc(O[Si](CC)(CC)CC)c1-c1c2ccccc2c(-c2c(O[Si](CC)(CC)CC)cccc2O[Si](CC)(CC)CC)c2ccccc12', 'nm', 432),
  ('C(#Cc1cccc2cc(-c3ccccc3)c3cc(-c4cc[b-]5c(c4)c(-c4ccccc4)cc4cccc(C#Cc6ccccc6)[n+]54)cc[b-]3[n+]12)c1ccccc1', 'nm', 630),
  ('CCOC(=O)COc1ccc(C(c2c(C)[nH]c3ccccc23)c2c(C)[nH]c3ccccc23)cc1', 'nm', 327),
  ('COCCC1(CCOC)c2cc(-c3ccc(OC)cc3)ccc2-c2ccc(-c3ccc(OC)cc3)cc21', 'nm', 371),
  ('CN(C)c1ccc(-c2c(/C=C3/C=Cc4ccccc4N3C)c(=O)c2=O)cc1', 'nm', 427),
  ('Cc1ccc(/C=C/c2ccccc2-[n+]2noc([O-])c2C)cc1', 'nm', 348),
  ('O=[N+]([O-])c1ccc(NCCN(Cc2c3ccccc3cc3ccccc23)c2ccc([N+](=O)[O-])cc2[N+](=O)[O-])c([N+](=O)[O-])c1', 'nm', 419);
